UniProt P35372 data, read-out log10 IC50
Sequence (P35372 whole entry): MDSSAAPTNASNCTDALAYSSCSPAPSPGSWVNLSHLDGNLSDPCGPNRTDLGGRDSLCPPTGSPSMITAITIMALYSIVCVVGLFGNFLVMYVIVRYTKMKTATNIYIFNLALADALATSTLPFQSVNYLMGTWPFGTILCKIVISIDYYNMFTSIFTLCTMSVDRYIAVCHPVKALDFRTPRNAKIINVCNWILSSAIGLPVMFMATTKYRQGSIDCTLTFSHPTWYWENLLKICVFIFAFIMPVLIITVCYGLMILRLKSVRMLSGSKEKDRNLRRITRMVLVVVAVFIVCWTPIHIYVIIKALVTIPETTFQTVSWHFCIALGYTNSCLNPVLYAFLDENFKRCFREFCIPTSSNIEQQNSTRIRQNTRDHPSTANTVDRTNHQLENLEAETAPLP
result.type: log10 IC50 (log10 of the value in nM)

>>> print(df.to_string())
                                   compound  target_of_assay  assay_result
0  C=C1CC[C@@]2(O)C3Cc4ccc(OCOC(=O)OCCCCCCCCCCCCCCCC)c5c4[C@@]2(CCN3CC2CC2)[C@H]1O5 [Compound 34]   UniProt P35372          1.10
1  C=C1CC[C@@]2(O)C3Cc4ccc(OCOC(=O)CCCCCCCCCCCCCCC)c5c4[C@@]2(CCN3CC2CC2)[C@H]1O5 [Compound 46]   UniProt P35372          0.66
2  C=C1CC[C@@]2(O)C3Cc4ccc(OCOC(=O)OCCCCCCCCCCCC)c5c4[C@@]2(CCN3CC2CC2)[C@H]1O5 [Compound 24]   UniProt P35372          1.35
3  C=C1CC[C@@]2(O)C3Cc4ccc(OC(=O)OCCCCCCCCCCCCCCC)c5c4[C@@]2(CCN3CC2CC2)[C@H]1O5 [Compound 32]   UniProt P35372          1.24
4  C=C1CC[C@@]2(O)C3Cc4ccc(OC(=O)OCCCCCCCCCCCC)c5c4[C@@]2(CCN3CC2CC2)[C@H]1O5 [Compound 6]   UniProt P35372          1.17
5  C=C1CC[C@@]2(O)C3Cc4ccc(OC(=O)OCCCCCCCCCCCCC)c5c4[C@@]2(CCN3CC2CC2)[C@H]1O5 [Compound 30]   UniProt P35372          0.95
6  CCCCCCCCOC(=O)Oc1ccc2c3c1O[C@H]1C(=O)CC[C@@]4(O)C(C2)N(CC2CC2)CC[C@]314 [Compound 23]   UniProt P35372          0.45
7  C=C1CC[C@@]2(O)C3Cc4ccc(OCOC(=O)OCCCCCCCCCCCCCC)c5c4[C@@]2(CCN3CC2CC2)[C@H]1O5 [Compound 25]   UniProt P35372          0.70
8  C=C1CC[C@@]2(O)C3Cc4ccc(OCOC(=O)CCCCCCCCCCC)c5c4[C@@]2(CCN3CC2CC2)[C@H]1O5 [Compound 44]   UniProt P35372          0.48
9  C=C1CC[C@@]2(O)C3Cc4ccc(OCOC(=O)CCCCCCCCCCCCC)c5c4[C@@]2(CCN3CC2CC2)[C@H]1O5 [Compound 45]   UniProt P35372          0.30

###

Assay: Polymorph screening of solid state drug substances (Table 23)
Type: physicochemical
Conditions: MTBE, stirred 50 °C 72 hours, dried solid
result.type: Dry method and appearance

                           structure_smiles              assay_result
0  CCCCCCCCCCCCOC(=O)Oc1ccc2c3c1O[C@H]1C(=O)CC[C@@]4(O)C(C2)N(CC2CC2)CC[C@]314  Evaporation/white powder
1  C=C1CC[C@@]2(O)C3Cc4ccc(OC(=O)OCCCCCCCCCCCCCC)c5c4[C@@]2(CCN3CC2CC2)[C@H]1O5  Evaporation/white powder

###

Assay: Solubility determination in oil (Table 10)
Settings: 25 °C, oil or lipid, thermodynamic from solid, Approximate Solubility in Excipient: Cottonseed oil, Heating Temp. 60 °C, Obs. Temp. 25 °C
result.type: solubility at 24 h

>>> df
                                    compound         result_type      assay_result
 0  CCCCCCCCCCCCCCCCCC(=O)Oc1ccc2c3c1O[C@H]1C(=O)CC[C@@]4(O)C(C2)N(CC2CC2)CC[C@]314 [Compound 54]  solubility at 24 h        < 51 mg/mL
 1  CCCCCCCCCCCC(=O)OCOc1ccc2c3c1O[C@H]1C(=O)CC[C@@]4(O)C(C2)N(CC2CC2)CC[C@]314 [Compound 48]  solubility at 24 h       > 410 mg/mL
 2  C=C1CC[C@@]2(O)C3Cc4ccc(OC(=O)CCCCCCCCCCCCCCC)c5c4[C@@]2(CCN3CC2CC2)[C@H]1O5 [Compound 56]  solubility at 24 h        < 50 mg/mL
 3  C=C1CC[C@@]2(O)C3Cc4ccc(OC(=O)OCCCCCCCCCCCC)c5c4[C@@]2(CCN3CC2CC2)[C@H]1O5 [Compound 6]  solubility at 24 h       > 397 mg/mL
 4  C=C1CC[C@@]2(O)C3Cc4ccc(OC(=O)OCCCCCCCCCC)c5c4[C@@]2(CCN3CC2CC2)[C@H]1O5 [Compound 18]  solubility at 24 h       > 400 mg/mL
 5  C=C1CC[C@@]2(O)C3Cc4ccc(OC(=O)OCCCCCCCCCCCCCCC)c5c4[C@@]2(CCN3CC2CC2)[C@H]1O5 [Compound 32]  solubility at 24 h       > 396 mg/mL
 6  CCCCCCCCCCCCCCCC(=O)OCOc1ccc2c3c1O[C@H]1C(=O)CC[C@@]4(O)C(C2)N(CC2CC2)CC[C@]314 [Compound 49]  solubility at 24 h        < 50 mg/mL
 7  C=C1CC[C@@]2(O)C3Cc4ccc(OCOC(=O)OCCCCCCCCCCCCCC)c5c4[C@@]2(CCN3CC2CC2)[C@H]1O5 [Compound 25]  solubility at 24 h       > 414 mg/mL
 8  CCCCCCCC/C=C\CCCCCCCCCCCC(=O)Oc1ccc2c3c1O[C@H]1C(=O)CC[C@@]4(O)C(C2)N(CC2CC2)CC[C@]314 [Compound 22]  solubility at 24 h    67 to 80 mg/mL
 9  C=C1CC[C@@]2(O)C3Cc4ccc(OC(=O)CCCCCCCCCCC/C=C\CCCCCCCC)c5c4[C@@]2(CCN3CC2CC2)[C@H]1O5 [Compound 13]  solubility at 24 h        < 50 mg/mL
10  CCCCCCCCOC(=O)Oc1ccc2c3c1O[C@H]1C(=O)CC[C@@]4(O)C(C2)N(CC2CC2)CC[C@]314 [Compound 23]  solubility at 24 h       > 408 mg/mL
11  C=C1CC[C@@]2(O)C3Cc4ccc(OCOC(=O)CCCCCCCCCCCCCCC)c5c4[C@@]2(CCN3CC2CC2)[C@H]1O5 [Compound 46]  solubility at 24 h       > 396 mg/mL
12  C=C1CC[C@@]2(O)C3Cc4ccc(OCOC(=O)OCCCCCCCCCCCC)c5c4[C@@]2(CCN3CC2CC2)[C@H]1O5 [Compound 24]  solubility at 24 h       > 403 mg/mL
13  C=C1CC[C@@]2(O)C3Cc4ccc(OCOC(=O)CCCCCCCCCCCCC)c5c4[C@@]2(CCN3CC2CC2)[C@H]1O5 [Compound 45]  solubility at 24 h       > 402 mg/mL
14  CCCCCCCCCCCCCCCCOC(=O)OCOc1ccc2c3c1O[C@H]1C(=O)CC[C@@]4(O)C(C2)N(CC2CC2)CC[C@]314 [Compound 47]  solubility at 24 h       > 406 mg/mL
15  CCCCCCCCCCCCCCC(=O)Oc1ccc2c3c1O[C@H]1C(=O)CC[C@@]4(O)C(C2)N(CC2CC2)CC[C@]314 [Compound 58]  solubility at 24 h  102 to 204 mg/mL
16  CCCCCCCCCCCCCCCCCCCCCC(=O)Oc1ccc2c3c1O[C@H]1C(=O)CC[C@@]4(O)C(C2)N(CC2CC2)CC[C@]314 [Compound 51]  solubility at 24 h        < 50 mg/mL
17  C=C1CC[C@@]2(O)C3Cc4ccc(OCOC(=O)OCCCCCCCCCCCCCCCC)c5c4[C@@]2(CCN3CC2CC2)[C@H]1O5 [Compound 34]  solubility at 24 h       > 404 mg/mL
18  C=C1CC[C@@]2(O)C3Cc4ccc(OCOC(=O)CCCCCCCCCCC)c5c4[C@@]2(CCN3CC2CC2)[C@H]1O5 [Compound 44]  solubility at 24 h       > 407 mg/mL
19  C=C1CC[C@@]2(O)C3Cc4ccc(OC(=O)OCCCCCCCCCCCCC)c5c4[C@@]2(CCN3CC2CC2)[C@H]1O5 [Compound 30]  solubility at 24 h  252 to 404 mg/mL
20  CCCCCCCCCCCCOC(=O)OCOc1ccc2c3c1O[C@H]1C(=O)CC[C@@]4(O)C(C2)N(CC2CC2)CC[C@]314 [Compound 29]  solubility at 24 h       > 410 mg/mL
21  C=C1CC[C@@]2(O)C3Cc4ccc(OC(=O)OCCCCCCCCCCCCCC)c5c4[C@@]2(CCN3CC2CC2)[C@H]1O5 [Compound 31]  solubility at 24 h       > 417 mg/mL
22  CCCCCCCCCCCCCCOC(=O)OCOc1ccc2c3c1O[C@H]1C(=O)CC[C@@]4(O)C(C2)N(CC2CC2)CC[C@]314 [Compound 27]  solubility at 24 h       > 395 mg/mL
23  C=C1CC[C@@]2(O)C3Cc4ccc(OC(=O)CCCCCCCCCCCCCCCCC)c5c4[C@@]2(CCN3CC2CC2)[C@H]1O5 [Compound 12]  solubility at 24 h        < 51 mg/mL
24  C=C1CC[C@@]2(O)C3Cc4ccc(OC(=O)OCCCCCCCCCCCCCCCCCCCC)c5c4[C@@]2(CCN3CC2CC2)[C@H]1O5 [Compound 28]  solubility at 24 h      < 50.2 mg/mL
25  CCCCCCCC/C=C/CCCCCCCC(=O)OCOc1ccc2c3c1O[C@H]1C(=O)CC[C@@]4(O)C(C2)N(CC2CC2)CC[C@]314 [Compound 26]  solubility at 24 h  204 to 239 mg/mL
